Assay: log P by HPLC on reversed-phase column (C18), EEC Directive 79/831 Annex V.A8
Assay type: physicochemical
Conditions: C18, 40° C., 0.1% aqueous formic acid and acetonitrile, gradient 10% to 90% acetonitrile
Please provide measured logP for the entries that follow.
Numbers only.

// input: 2 compounds below; output: logP for each
1. CC(c1cccnc1Cl)N(C(=O)c1cn(C)nc1C(F)F)C1CC1 (racemic)
2. Cc1nn(C)c(F)c1C(=O)N(Cc1ccc(Oc2ccccc2)nc1)C1CC1

1. 1.88
2. 2.39

###

Test: log P by HPLC on reversed-phase column (C18), EEC Directive 79/831 Annex V.A8
Assay type: physicochemical
Settings: C18, 40° C., 0.1% aqueous formic acid and acetonitrile, gradient 10% to 90% acetonitrile
For each entry below, report its logP value.
Answers are plain numbers.

> print(dat)
                                   compound  observable  numeric.result
1  Cc1cc(C(=O)N(Cc2c(Cl)cncc2Cl)C2CC2)no1 [Example 106]        logP             2.4
2  Cc1nc(C(F)F)c(C(=O)N(Cc2ccc(Cl)cn2)C2CC2)s1 [Example 52]        logP            2.54

Now for a further compound.
Any idea what its logP is? The compound is Cn1cc(C(=O)N(Cc2ccncc2)C2CC2)c(C(F)(F)F)c1 [Example 16]
0.99
